# tested-system: human FXR (NR1H4) (Homo sapiens (Human))
# test-description: Human FXR (NR1H4) Assay (Gal4 promoter driven luciferase reporter, Indigo Bioscience kit IB00601)
# Format: cell-based
# experimental-parameters: potency ranges
Listed below: EC50 values for each entry.
readout-kind: EC50

>>> result("CC[C@H]1[C@@H](O)[C@@H]2[C@H](CC[C@]3(C)[C@@H]([C@H](C)CNC(=O)NS(=O)(=O)c4ccccc4)CC[C@@H]23)[C@@]2(C)CC[C@@H](O)C[C@@H]12 [Example 31]")
"100 to 1000 nM"
>>> result("CC[C@H]1[C@@H](O)[C@@H]2[C@H](CC[C@]3(C)[C@@H]([C@H](C)CCNC(=O)NS(=O)(=O)C(C)(C)C)CC[C@@H]23)[C@@]2(C)CC[C@@H](O)C[C@@H]12 [Example 28]")
"< 100 nM"
>>> result("CC[C@H]1[C@@H](O)[C@@H]2[C@H](CC[C@]3(C)[C@@H]([C@H](C)CCNC(=O)NS(=O)(=O)N4CCC(C)(C)CC4)CC[C@@H]23)[C@@]2(C)CC[C@@H](O)C[C@@H]12 [Example 65]")
"< 100 nM"
>>> result("CC[C@H]1[C@@H](O)[C@@H]2[C@H](CC[C@]3(C)[C@@H]([C@H](C)CCNC(=O)NS(=O)(=O)c4ccc(C)c(F)c4)CC[C@@H]23)[C@@]2(C)CC[C@@H](O)C[C@@H]12 [Example 16]")
"< 100 nM"
>>> result("CC[C@H]1[C@@H](O)[C@@H]2[C@H](CC[C@]3(C)[C@@H]([C@H](C)CCNC(=O)NS(=O)(=O)c4ccc(C(C)(C)C(=O)OC)cc4)CC[C@@H]23)[C@@]2(C)CC[C@@H](O)C[C@@H]12 [Example 70]")
"< 100 nM"

====

Listed below: pEC50 values for each entry.
# tested-system: human FXR (NR1H4) (Homo sapiens (Human), UniProt Q96RI1)
# Sequence (Q96RI1 whole entry, the tested form may be a part): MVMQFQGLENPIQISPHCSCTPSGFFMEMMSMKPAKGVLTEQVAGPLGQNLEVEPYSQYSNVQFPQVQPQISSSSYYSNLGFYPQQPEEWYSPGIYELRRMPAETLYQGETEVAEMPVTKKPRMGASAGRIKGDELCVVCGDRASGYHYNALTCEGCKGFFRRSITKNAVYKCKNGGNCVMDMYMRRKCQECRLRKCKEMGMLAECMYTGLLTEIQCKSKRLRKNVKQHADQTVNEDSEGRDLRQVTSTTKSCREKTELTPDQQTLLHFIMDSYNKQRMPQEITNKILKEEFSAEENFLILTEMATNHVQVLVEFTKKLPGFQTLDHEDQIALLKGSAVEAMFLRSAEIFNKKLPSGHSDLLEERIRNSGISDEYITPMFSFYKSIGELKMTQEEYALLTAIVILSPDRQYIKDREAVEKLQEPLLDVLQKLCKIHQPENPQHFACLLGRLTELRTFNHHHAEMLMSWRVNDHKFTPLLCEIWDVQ
# test-description: Human FXR (NR1H4) Assay (Gal4 promoter driven luciferase reporter, Indigo Bioscience kit IB00601)
# experimental-parameters: potency ranges
pEC50: −log10 of the molar value.
readout-kind: pEC50

>>> result("CC[C@H]1[C@@H](O)[C@@H]2[C@H](CC[C@]3(C)[C@@H]([C@H](C)CNC(=O)NS(=O)(=O)c4ccc(-c5ccccc5)s4)CC[C@@H]23)[C@@]2(C)CC[C@@H](O)C[C@@H]12")
"> 7.00"
>>> result("CC[C@H]1[C@@H](O)[C@@H]2[C@H](CC[C@]3(C)[C@@H]([C@H](C)CNC(=O)NS(=O)(=O)C4CC4)CC[C@@H]23)[C@@]2(C)CC[C@@H](O)C[C@@H]12")
"5.00 to 6.00"
>>> result("CC[C@H]1[C@@H](O)[C@@H]2[C@H](CC[C@]3(C)[C@@H]([C@H](C)CCNC(=O)NS(=O)(=O)c4ccc(C5CCCCC5)cc4)CC[C@@H]23)[C@@]2(C)CC[C@@H](O)C[C@@H]12")
"6.00 to 7.00"
>>> result("CC[C@H]1[C@@H](O)[C@@H]2[C@H](CC[C@]3(C)[C@@H]([C@H](C)CCNC(=O)NS(=O)(=O)c4c(F)c(F)c(F)c(F)c4F)CC[C@@H]23)[C@@]2(C)CC[C@@H](O)C[C@@H]12")
"5.00 to 6.00"
